Record form. Attribute: MIC. Fill in for each entry.
Tested on: S. aureus RN450
Assay: In Vitro Anti-Bacterial Activity Assay (MIC), gram positive
Type: cell-based
Conditions: Staphylococcus aureus, RN450, 18 h, gram positive bacteria; read-out: Antibiotic Activity Gram + (MIC)

query smiles	tested system	MIC
CC(=O)c1ccc(-c2ccc3c(c2O)C(=O)C2=C(O)[C@]4(O)C(=O)C(C(N)=O)=C(O)[C@@H](N(C)C)[C@@H]4[C@@H](O)[C@@H]2[C@H]3C)cc1	S. aureus RN450	< 4 µg/mL
CCCCOc1cccc2c1C(=O)C1=C(O)[C@]3(O)C(=O)C(C(N)=O)=C(O)[C@@H](N(C)C)[C@@H]3C[C@@H]1C2	S. aureus RN450	> 4 µg/mL
CC(=O)Cc1cc(I)c2c(c1O)C(=O)C1=C(O)[C@]3(O)C(=O)C(C(N)=O)=C(O)[C@@H](N(C)C)[C@@H]3C[C@@H]1C2	S. aureus RN450	> 4 µg/mL
CN(C)[C@@H]1C(O)=C(C(N)=O)C(=O)[C@@]2(O)C(O)=C3C(=O)c4c(O)ccc(CNCc5ccccc5)c4C[C@H]3C[C@@H]12	S. aureus RN450	< 4 µg/mL
CN(C)c1cc(NCc2ccccc2OC(C)(C)C)c(O)c2c1C[C@H]1C[C@H]3[C@H](N(C)C)C(O)=C(C(N)=O)C(=O)[C@@]3(O)C(O)=C1C2=O	S. aureus RN450	< 4 µg/mL

// query Bench note: what MIC did "C[C@H]1c2ccc(N3CCOCC3)c(O)c2C(=O)C2=C(O)[C@]3(O)C(=O)C(C(N)=O)=C(O)[C@@H](N(C)C)[C@@H]3[C@@H](O)[C@@H]21" show?
// result > 4 µg/mL

====

Record form. Attribute: MIC. Fill in for each entry.
Tested on: S. aureus RN450
Assay: In Vitro Anti-Bacterial Activity Assay (MIC), gram positive
Type: cell-based
Settings: Staphylococcus aureus, RN450, 18 h, read-out: Antibiotic Activity Gram +

molecule	MIC
CCOP(=O)(OCC)C(Nc1cc(N(C)C)c2c(c1O)C(=O)C1=C(O)[C@]3(O)C(=O)C(C(N)=O)=C(O)[C@@H](N(C)C)[C@@H]3C[C@@H]1C2)c1ccc(OC)cc1 (stereo partly drawn)	< 4 µg/mL
COc1ccc(OC(=O)Nc2ccc3c(c2O)C(=O)C2=C(O)[C@]4(O)C(=O)C(C(N)=O)=C(O)[C@@H](N(C)C)[C@@H]4C[C@@H]2C3)cc1	< 4 µg/mL

Alright, here's another molecule for you.
// query Bench note: what MIC did "COc1ccc(OC(=O)Nc2ccc(-c3ccc(O)c4c3C[C@H]3C[C@H]5[C@@H](N(C)C)C(O)=C(C(N)=O)C(=O)[C@@]5(O)C(O)=C3C4=O)cc2)cc1" show?
// result > 4 µg/mL

====

Test system: S. aureus RN450
Experiment: In Vitro Anti-Bacterial Activity Assay (MIC), gram positive
Type: cell-based
Conditions: Staphylococcus aureus, RN450, 18 h, gram positive bacteria; read-out: Antibiotic Activity Gram + (MIC)
Record form. Attribute: MIC. Fill in for each entry.

Solved entries:
query smiles	MIC
CCCCOC(=O)Nc1cc(N(C)C)c2c(c1O)C(=O)C1=C(O)[C@]3(O)C(=O)C(C(N)=O)=C(O)[C@@H](N(C)C)[C@@H]3C[C@@H]1C2	< 4 µg/mL
CN(C)[C@@H]1C(O)=C(C(N)=O)C(=O)[C@@]2(O)C(O)=C3C(=O)c4c(O)ccc(-c5ccc(NC(=O)OC(C)(C)C)cc5)c4C[C@H]3C[C@@H]12	< 4 µg/mL
CC(C)CNC(=O)Nc1ccc(-c2ccc(O)c3c2C[C@H]2C[C@H]4[C@H](N(C)C)C(O)=C(C(N)=O)C(=O)[C@@]4(O)C(O)=C2C3=O)cc1	< 4 µg/mL
CO/N=C/c1ccc(OC)c(-c2ccc(O)c3c2C[C@H]2C[C@H]4[C@H](N(C)C)C(O)=C(C(N)=O)C(=O)[C@@]4(O)C(O)=C2C3=O)c1	< 4 µg/mL
CN(C)c1cc(CNc2ccccn2)c(O)c2c1C[C@H]1C[C@H]3[C@H](N(C)C)C(O)=C(C(N)=O)C(=O)[C@@]3(O)C(O)=C1C2=O	< 4 µg/mL
CN(C)[C@@H]1C(O)=C(C(N)=O)C(=O)[C@@]2(O)C(O)=C3C(=O)c4c(O)ccc(C5CCCC5)c4C[C@H]3C[C@@H]12	< 4 µg/mL

Provide reported MIC for each item, in the same order as listed.
1. CC(=O)N(Cc1cc(N(C)C)c2c(c1O)C(=O)C1=C(O)[C@]3(O)C(=O)C(C(N)=O)=C(O)[C@@H](N(C)C)[C@@H]3C[C@@H]1C2)CC(C)(C)C
2. CC(=O)Cc1cc(-c2ccccn2)c2c(c1O)C(=O)C1=C(O)[C@]3(O)C(=O)C(C(N)=O)=C(O)[C@@H](N(C)C)[C@@H]3C[C@@H]1C2
3. CC(=O)NCc1ccc(O)c2c1C[C@H]1C[C@H]3[C@H](N(C)C)C(O)=C(C(N)=O)C(=O)[C@@]3(O)C(O)=C1C2=O
4. CN(C)c1cc(CNCC2CCOCC2)c(O)c2c1C[C@H]1C[C@H]3[C@H](N(C)C)C(O)=C(C(N)=O)C(=O)[C@@]3(O)C(O)=C1C2=O

// result
1: > 4 µg/mL; 2: > 4 µg/mL; 3: < 4 µg/mL; 4: < 4 µg/mL

// query Bench note: what MIC did "COC(=O)C1CCN(CC(=O)Nc2ccc(-c3ccc(O)c4c3C[C@H]3C[C@H]5[C@H](N(C)C)C(O)=C(C(N)=O)C(=O)[C@@]5(O)C(O)=C3C4=O)cc2)CC1" show?
// result < 4 µg/mL

====

Tested on: S. aureus RN450
Assay: In Vitro Anti-Bacterial Activity Assay (MIC), gram positive
Type: cell-based
Conditions: Staphylococcus aureus, RN450, 18 h, gram positive bacteria; read-out: Antibiotic Activity Gram + (MIC)
Record form. Attribute: MIC. Fill in for each entry.

Solved entries:
query smiles	MIC
CN(C)[C@@H]1C(O)=C(C(N)=O)C(=O)[C@@]2(O)C(O)=C3C(=O)c4c(O)ccc(C(=O)C(=O)N5CCOCC5)c4C[C@H]3C[C@@H]12	< 4 µg/mL
CN(C)c1cc(CNC(CF)CF)c(O)c2c1C[C@H]1C[C@H]3[C@H](N(C)C)C(O)=C(C(N)=O)C(=O)[C@@]3(O)C(O)=C1C2=O	< 4 µg/mL
Cc1cc(CNCc2cc(N(C)C)c3c(c2O)C(=O)C2=C(O)[C@]4(O)C(=O)C(C(N)=O)=C(O)[C@@H](N(C)C)[C@@H]4C[C@@H]2C3)c(C(F)(F)F)o1	< 4 µg/mL
CNCc1cc(N(C)C)c2c(c1O)C(=O)C1=C(O)[C@]3(O)C(=O)C(C(N)=O)=C(O)[C@@H](N(C)C)[C@@H]3C[C@@H]1C2	< 4 µg/mL
CN(C)[C@@H]1C(O)=C(C(N)=O)C(=O)[C@@]2(O)C(O)=C3C(=O)c4c(O)c(N)cc(-c5ccccn5)c4C[C@H]3C[C@@H]12	< 4 µg/mL
CN(C)c1cc(CNc2ccccc2)c(O)c2c1C[C@H]1C[C@H]3[C@H](N(C)C)C(O)=C(C(N)=O)C(=O)[C@@]3(O)C(O)=C1C2=O	< 4 µg/mL
CN(C)c1cc(NCc2ccc(C#N)cc2)c(O)c2c1C[C@H]1C[C@H]3[C@H](N(C)C)C(O)=C(C(N)=O)C(=O)[C@@]3(O)C(O)=C1C2=O	> 4 µg/mL
C[C@H]1c2c(Br)ccc(O)c2C(=O)C2=C(O)[C@]3(O)C(=O)C(C(N)=O)=C(O)[C@@H](N(C)C)[C@@H]3[C@@H](O)[C@@H]21	> 4 µg/mL
CN(C)c1cc(CCC(=O)NC(C)(C)C)c(O)c2c1C[C@H]1C[C@H]3[C@H](N(C)C)C(O)=C(C(N)=O)C(=O)[C@@]3(O)C(O)=C1C2=O	> 4 µg/mL
C[C@H]1c2ccc(CNCCC(F)(F)F)c(O)c2C(=O)C2=C(O)[C@]3(O)C(=O)C(C(N)=O)=C(O)[C@@H](N(C)C)[C@@H]3[C@@H](O)[C@@H]21	< 4 µg/mL

Provide reported MIC for each item, in the same order as listed.
1. CN(C)c1cc(C(=O)N2CCOCC2)c(O)c2c1C[C@H]1C[C@H]3[C@H](N(C)C)C(O)=C(C(N)=O)C(=O)[C@@]3(O)C(O)=C1C2=O
2. CN(C)c1cc(CC2=COc3ccccc3C2)c(O)c2c1C[C@H]1C[C@H]3[C@H](N(C)C)C(O)=C(C(N)=O)C(=O)[C@@]3(O)C(O)=C1C2=O

// result
1. > 4 µg/mL
2. < 4 µg/mL

====

Record form. Attribute: MIC. Fill in for each entry.
Tested on: S. aureus RN450
Assay: In Vitro Anti-Bacterial Activity Assay (MIC), gram positive
Assay type: cell-based
Settings: Staphylococcus aureus, RN450, 18 h, gram positive bacteria; read-out: Antibiotic Activity Gram + (MIC)

Solved entries:
query smiles	readout label	experimental value
CN(C)[C@@H]1C(O)=C(C(N)=O)C(=O)[C@@]2(O)C(O)=C3C(=O)c4c(ccc(NC5CCN(Cc6ccccc6)CC5)c4O)C[C@H]3C[C@@H]12	MIC	> 4 µg/mL
CN(C)[C@@H]1C(O)=C(C(N)=O)C(=O)[C@@]2(O)C(O)=C3C(=O)c4c(O)ccc(-c5ncccn5)c4C[C@H]3C[C@@H]12	MIC	< 4 µg/mL

Alright, here's another molecule for you.
// query Bench note: what MIC did "C[C@H]1c2ccc(N(C)C3CCN(C)CC3)c(O)c2C(=O)C2=C(O)[C@]3(O)C(=O)C(C(N)=O)=C(O)[C@@H](N(C)C)[C@@H]3[C@@H](O)[C@@H]21" show?
// result > 4 µg/mL
